Reference source for all entries: patent US8957228B2

# Test system: SK-OV-3 (human ovarian carcinoma)
# PROTOCOL_TEXT: Drug sensitivity test, panel of human cultured cancer cell lines (sulforhodamine B colorimetry)
# Type: cell-based
# ASSAY_SETUP: concentration inducing 50% cell death, read-out: LC50 (the source's name)
ENDPOINT_LABEL: CC50

Which CC50 is reported for this compound? COC(=O)/C=C1\C[C@H]2CC(=O)O[C@@H](/C=C/C=C\C=C(/C)CC(=O)OC)[C@@H](C)/C=C/[C@H](C)C[C@H]3CCC[C@@H](C[C@@H](C1)O2)O3 [exiguolide, (−)exiguolide] > 100 µM

----------
# Test system: A549 (human lung adenocarcinoma)
# PROTOCOL_TEXT: Drug sensitivity test, panel of human cultured cancer cell lines (sulforhodamine B colorimetry)
# Type: cell-based
# ASSAY_SETUP: concentration inducing 50% cell death, read-out: LC50 (the source's name)
ENDPOINT_LABEL: CC50

Which CC50 is reported for this molecule? COC(=O)/C=C1\C[C@H]2CC(=O)O[C@@H](/C=C/C=C\C=C(/C)CC(=O)OC)[C@@H](C)/C=C/[C@H](C)C[C@H]3CCC[C@@H](C[C@@H](C1)O2)O3 [exiguolide, (−)exiguolide] > 100 µM

----------
# Test system: MKN74 (human gastric carcinoma)
# PROTOCOL_TEXT: Drug sensitivity test, panel of human cultured cancer cell lines (sulforhodamine B colorimetry)
# Format: cell-based
# ASSAY_SETUP: concentration inducing 50% cell death, read-out: LC50 (the source's name)
ENDPOINT_LABEL: CC50

Which CC50 is reported for this compound? COC(=O)/C=C1\C[C@H]2CC(=O)O[C@@H](/C=C/C=C\C=C(/C)CC(=O)OC)[C@@H](C)/C=C/[C@H](C)C[C@H]3CCC[C@@H](C[C@@H](C1)O2)O3 [exiguolide, (−)exiguolide] > 100 µM
